System: K-562 leukemia
Assay: NCI-60 one-dose screen, 48 h (100 = growth as untreated, 0 = no growth, -100 = all killed)
Details: 10 µM unless noted
Compounds without any hit were thinned out: in the full panel of roughly 83,000, 20% have a hit.
Labelling: growth reported below 20% becomes satisfied; at or above becomes not satisfied.

# example entries with known answers
[[record]]
molecule = "Nc1c(C(=O)c2ccccc2)sc2nc(-c3cc4ccccc4o3)cc(-c3ccc(Cl)cc3)c12"
group = "not satisfied"

[[record]]
molecule = "CCOC(=O)c1c(C)nc2c(c1N)/C(=C/c1ccccn1)C(=O)N2Cc1ccccc1"
group = "satisfied"

[[record]]
molecule = "CCO/C=N/S(=O)(=O)c1cc2c(cc1Cl)NC=NS2(=O)=O"
group = "not satisfied"

[[record]]
molecule = "O=C1CCc2ccccc2N1"
group = "not satisfied"


Report whether reported growth is lower than 20% (strictly) for COc1cc(NC(=O)c2cc(O)c(C/C=C(\C)CCC=C(C)C)c(O)c2)cc2c1O[C@]1(C)CC[C@@H](O)C(C)(C)[C@H]1C2
satisfied

Lab log: compare recorded growth with 20%; is it strictly lower for O=C(NC[C@H](O)CN1CCc2ccccc2C1)c1cc(NC2COC2)ncn1 ?
not satisfied

Decide: growth of O=C1NC(SCc2ccc(F)cc2)=N/C1=C/c1cccc(OCc2ccc(Cl)cc2)c1 strictly below 20%?
not satisfied

I'd appreciate it if you could check whether C#C[C@@]1(O)[C@@H](CO)O[C@@H](n2cnc3c(-c4ccccc4)ncnc32)[C@@H]1O has growth smaller than 20%.
not satisfied

is_below(growth, 20%) for COc1ccc(Cl)c([N+](=O)[O-])c1 ?
not satisfied

# TODO verify growth < 20% strictly for this molecule: Oc1c(CCl)cc(Cl)cc1Cc1cc(Cl)cc(Cc2cc(Cl)cc(CCl)c2O)c1O
satisfied

Data provenance is PubChem BioAssay (NCI).
